Record set of IC50 for target or system ERβ (Homo sapiens).

>  <Compound Smiles>
Cc1c(O)cc2c(c1C)O[C@](C)(CCC[C@H](C)CCC[C@H](C)CCCC(C)C)CC2

>  <U>
µM

>  <IC50>
215

$$$$
>  <Compound Smiles>
CC(C)=CCC/C(C)=C/CC/C(C)=C/CC[C@]1(C)CCc2c(C)c(O)c(C)c(C)c2O1

>  <U>
µM

>  <IC50>
388

$$$$
>  <Compound Smiles>
CC(C)=CCC/C(C)=C/CC/C(C)=C/CC[C@]1(C)CCc2cc(O)c(C)c(C)c2O1

>  <U>
µM

>  <IC50>
205

$$$$
>  <Compound Smiles>
CC(C)=CCC/C(C)=C/CC/C(C)=C/CC[C@]1(C)CCc2cc(O)cc(C)c2O1

>  <U>
µM

>  <IC50>
91

$$$$
